Parameter: GI50. Scope: all listed entries.
System: OVCAR-5
Test: NCI tumour cell line growth inhibition, 48 h
Active and inactive are the calls of the source. No stated cut-off is given here; in the data, active = GI50 up to about 1.1 µM and inactive = higher.

[
  {
    "molecule": "CN(CC(=O)O)c1ncc2c(n1)-c1ccccc1CC2",
    "GI50": "> 100 µM (inactive)"
  },
  {
    "molecule": "CCC1(O)C(=O)OCc2c1cc1n(c2=O)Cc2cc3ccc(C=O)cc3nc2-1 (stereo not drawn)",
    "GI50": "7.29 µM (inactive)"
  },
  {
    "molecule": "COC(=O)CCc1ccc2c(c1)CC1(C2)Cc2ccc(CCC(=O)OC)cc2C1",
    "GI50": "> 100 µM (inactive)"
  }
]

Every entry's value here was drawn from ChEMBL document CHEMBL1201862.
